Where do the numbers come from? From patent US20250333541A1.

- ASSAY_SYSTEM: T1, human TF-His (human, UniProt P13726 33-251)
- T1 construct: range 33-251; Recombinant extracellular segment expressed in HEK293-EBNA cells and purified on a nickel column; also called h.TF-His; h; TF-his; not shown: His tag from vector pTT5-His
- METHOD_SUMMARY: ELISA, plate coated with h.TF-His
OBSERVATION_TYPE: EC50 (ng/mL)
Numbers only; they are read as ng/mL.

So, 22F11H5-hz1 (antibody, human IgG1, kappa, V domains shown, Humanized IgG1 kappa) VH: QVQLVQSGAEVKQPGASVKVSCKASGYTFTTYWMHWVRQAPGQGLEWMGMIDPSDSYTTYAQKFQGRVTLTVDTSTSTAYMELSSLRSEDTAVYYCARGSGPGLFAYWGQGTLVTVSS VL: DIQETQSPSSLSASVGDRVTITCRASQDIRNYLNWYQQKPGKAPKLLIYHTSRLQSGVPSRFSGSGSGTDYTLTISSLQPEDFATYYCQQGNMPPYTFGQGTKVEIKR ? Its EC50 was 8.58
